# key: entry, value: pKd
biological target: T1, recombinant human CD3 epsilon/gamma heterodimer (human, UniProt P07766 23-126; P09693 23-116); experiment: BLI (Octet), mAb 5 ug/mL on FAB2G sensor, hCD3 E/G 200-50 nM;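 note: antibodies purified from hybridoma supernatants, measured by Octet binding to recombinant human CD3 protein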
T1 construct: Recombinant heterodimer used as analyte in Octet; also called hCD3 E/G
T1 sequence (P07766 23-126, chain 1 of 2): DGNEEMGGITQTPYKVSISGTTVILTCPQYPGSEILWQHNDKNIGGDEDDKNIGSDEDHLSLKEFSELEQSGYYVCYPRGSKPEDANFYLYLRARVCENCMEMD
T1 sequence (P09693 23-116, chain 2 of 2): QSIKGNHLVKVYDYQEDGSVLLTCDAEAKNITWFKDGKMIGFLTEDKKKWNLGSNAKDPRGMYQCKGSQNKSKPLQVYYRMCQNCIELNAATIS
// scale note: pKd = -log10(conc_M); give the bare number

Look over these answered cases.
BINDER	RECORDED_METRIC	OBSERVED_MEASUREMENT
ABL-CD3-87 (antibody, V domains shown, mAb purified from hybridoma; chimeric AlivaMab IgG (human VH, CH1 and upper hinge; mouse middle hinge, CH2, CH3; human light chain)) VH: EVQLVESGGGLVKFGGSLRLSCAASGFTFSRYSMNWVRQAPGKGLEWVSSISSSSSYKYYADSVKGRFTISRDNAKNSLYLQMNSLRAEDTAVYYCAREGGNSHGMDVWGQGTTVTVSS VL: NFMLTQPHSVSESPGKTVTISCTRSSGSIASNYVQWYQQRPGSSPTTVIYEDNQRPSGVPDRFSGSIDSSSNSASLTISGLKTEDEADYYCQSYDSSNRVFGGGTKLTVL	pKd	6.88
ABL-CD3-83 (antibody, V domains shown, mAb purified from hybridoma; chimeric AlivaMab IgG (human VH, CH1 and upper hinge; mouse middle hinge, CH2, CH3; human light chain)) VH: EVQLVESGGGLVKPGGSLRLSCAASGFTFSSYSMNWVRQAPGKGLEWVSTISRSGGYIYDADSVKGRFTISRDNAKNSLYLQMNSLRAEDTAVYYCARDFNWTFDNWGQGTLVTVSS VL: NFMLTQPHSVSESPGKTVTISCTRSSGSIASNYVQWYQQRPGSSPTTVIYEDNQRPSGVPDRFSGSIDSSSNSASLTISGLKTEDEADYYCQSSDRSNVVFGGGTKLTVL	pKd	7.42
ABL-CD3-72 (antibody, V domains shown, mAb purified from hybridoma; chimeric AlivaMab IgG (human VH, CH1 and upper hinge; mouse middle hinge, CH2, CH3; human light chain)) VH: EVQLVESGGGLVKPGGSLRLSCAASGFTFSTYIMNWVRQAPGKGLEWVSSISSSRSYIYYADSVKGRFTISRDNAKNSLYLQMNSLRAEDTAVYYCAREDRYRLFFDYWGQGTLVTVSS VL: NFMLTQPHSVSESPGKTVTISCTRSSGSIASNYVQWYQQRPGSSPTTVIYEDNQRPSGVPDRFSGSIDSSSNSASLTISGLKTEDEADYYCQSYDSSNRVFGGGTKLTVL	pKd	6.35

Lab note: next binder to report on.
[Q] Give pKd for ABL-CD3-79 (antibody, V domains shown, mAb purified from hybridoma; chimeric AlivaMab IgG (human VH, CH1 and upper hinge; mouse middle hinge, CH2, CH3; human light chain)) VH: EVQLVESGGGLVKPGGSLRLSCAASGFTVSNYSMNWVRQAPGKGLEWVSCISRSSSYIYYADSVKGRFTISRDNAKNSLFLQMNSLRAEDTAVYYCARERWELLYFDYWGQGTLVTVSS VL: QTVVTQEPSFSVSPGGTVTLTCGLSSGSVSTSYYPSWYQQTPGQAPRTLIYSTNTRSSGVPDRFSGSILGNKAALTITGAQADDESDYYCVLYMGSGIWVFGGGTKLTVL
[A] 6.39
